- System: 422866-222-R5-J1-PDC complex spheroid viability
- test protocol: Anticancer human tumor 422866-222-R5-J1-PDC patient-derived pancreatic adenocarcinoma cell line growth inhibition [POLQ]
- condition: second compound 0.316 µM; first compound 3.16 µM; stronger effect = lower value
Recorded viability, T/C, one value per entry.
recorded endpoint: viability, T/C (%)

molecule	target	unit abbreviation	quantitative result
CC1COCCN1c1cc(C2(O)CC3CCC(C2)O3)c2cnn(-c3ccn[nH]3)c2n1 (stereo not given) + COC1C(OC(N)=O)C(O)C(Oc2ccc3c(O)c(NC(=O)c4ccc(O)c(CC=C(C)C)c4)c(=O)oc3c2C)OC1(C)C	422866-222-R5-J1-PDC complex spheroid viability	%	71.5
C#Cc1c(F)ccc2cc(O)cc(-c3ncc4c(N5CC6CCC(C5)N6)nc(OCC56CCCN5CC(F)C6)nc4c3F)c12 (stereo not given) + COC1C(OC(N)=O)C(O)C(Oc2ccc3c(O)c(NC(=O)c4ccc(O)c(CC=C(C)C)c4)c(=O)oc3c2C)OC1(C)C	422866-222-R5-J1-PDC complex spheroid viability	%	31.4
COc1cccc2c1C(=O)c1c(O)c3c(c(O)c1C2=O)CC(O)(C(=O)CO)CC3OC1CC(N)C(O)C(C)O1 (stereo not given) + COC1C(OC(N)=O)C(O)C(Oc2ccc3c(O)c(NC(=O)c4ccc(O)c(CC=C(C)C)c4)c(=O)oc3c2C)OC1(C)C	422866-222-R5-J1-PDC complex spheroid viability	%	26.9
Nc1ccn(C2OC(CO)C(O)C2(F)F)c(=O)n1 (stereo not given) + Cc1cccc(N(C)C(=O)C2C(O)CCN2c2nc(C)cc(C(F)(F)F)c2C#N)c1	422866-222-R5-J1-PDC complex spheroid viability	%	35
CCc1cc2c(N3CCc4c(cc(Cn5ccnc5)cc4-c4cn(C)nc4C(F)(F)F)C3=O)cc(C)nc2c(OC)n1 + Cc1cccc(N(C)C(=O)C2C(O)CCN2c2nc(C)cc(C(F)(F)F)c2C#N)c1	422866-222-R5-J1-PDC complex spheroid viability	%	104
CCc1cc2c(N3CCc4c(cc(Cn5ccnc5)cc4-c4cn(C)nc4C(F)(F)F)C3=O)cc(C)nc2c(OC)n1 + Nc1ccc(C#CCN(C(=O)Cc2ncc(C(F)(F)F)cc2C(F)(F)F)c2ccc(F)cc2)nn1	422866-222-R5-J1-PDC complex spheroid viability	%	118
COc1cc(C2c3cc4c(cc3C(OC3OC5COC(C)OC5C(O)C3O)C3COC(=O)C23)OCO4)cc(OC)c1O (stereo not given) + Cc1cccc(N(C)C(=O)C2C(O)CCN2c2nc(C)cc(C(F)(F)F)c2C#N)c1	422866-222-R5-J1-PDC complex spheroid viability	%	47.7
CCCS(=O)(=O)Nc1ccc(F)c(C(=O)c2c[nH]c3ncc(-c4ccc(Cl)cc4)cc23)c1F + COC1C(OC(N)=O)C(O)C(Oc2ccc3c(O)c(NC(=O)c4ccc(O)c(CC=C(C)C)c4)c(=O)oc3c2C)OC1(C)C	422866-222-R5-J1-PDC complex spheroid viability	%	173
C=CC(=O)N1CCN(c2nc(=O)n(-c3c(C)ccnc3C(C)C)c3nc(-c4c(O)cccc4F)c(F)cc23)C(C)C1 (stereo not given) + Nc1ccc(C#CCN(C(=O)Cc2ncc(C(F)(F)F)cc2C(F)(F)F)c2ccc(F)cc2)nn1	422866-222-R5-J1-PDC complex spheroid viability	%	25.1
CC1COCCN1c1cc(-c2ccnn2C)c2ccnc(-c3ccn[nH]3)c2n1 (stereo not given) + COC1C(OC(N)=O)C(O)C(Oc2ccc3c(O)c(NC(=O)c4ccc(O)c(CC=C(C)C)c4)c(=O)oc3c2C)OC1(C)C	422866-222-R5-J1-PDC complex spheroid viability	%	88.5

---

Parameter: IC50. Scope: all listed entries.
- Tested on: 422866-222-R5-J1-PDC complex spheroid viability
- test protocol: Anticancer human tumor 422866-222-R5-J1-PDC cell line growth inhibition [POLQ];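 further: spheroids exposed to compounds for one week before readout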
- condition: curve of first compound; second compound 1 µM

molecule	unit abbreviation	qualifier sign	IC50
CCc1cc2c(N3CCc4c(cc(Cn5ccnc5)cc4-c4cn(C)nc4C(F)(F)F)C3=O)cc(C)nc2c(OC)n1 + Nc1ccc(C#CCN(C(=O)Cc2ncc(C(F)(F)F)cc2C(F)(F)F)c2ccc(F)cc2)nn1	nM	>	10000
CC1COCCN1c1cc(C2(O)CC3CCC(C2)O3)c2cnn(-c3ccn[nH]3)c2n1 (stereo not given) + COC1C(OC(N)=O)C(O)C(Oc2ccc3c(O)c(NC(=O)c4ccc(O)c(CC=C(C)C)c4)c(=O)oc3c2C)OC1(C)C	nM	>	10000
O=C(c1cc(Cc2n[nH]c(=O)c3ccccc23)ccc1F)N1CCN(C(=O)C2CC2)CC1 + COC1C(OC(N)=O)C(O)C(Oc2ccc3c(O)c(NC(=O)c4ccc(O)c(CC=C(C)C)c4)c(=O)oc3c2C)OC1(C)C	nM	<	31.6
C=CCn1c(=O)c2cnc(Nc3ccc(N4CCN(C)CC4)cc3)nc2n1-c1cccc(C(C)(C)O)n1 + Cc1cccc(N(C)C(=O)C2C(O)CCN2c2nc(C)cc(C(F)(F)F)c2C#N)c1	nM	=	257
CC1COCCN1c1cc(C2(S(C)(=N)=O)CC2)nc(-c2ccnc3[nH]ccc23)n1 (stereo not given) + COC1C(OC(N)=O)C(O)C(Oc2ccc3c(O)c(NC(=O)c4ccc(O)c(CC=C(C)C)c4)c(=O)oc3c2C)OC1(C)C	nM	=	2940

---

- Tested on: 422866-222-R5-J1-PDC complex spheroid viability
- test protocol: Anticancer human tumor 422866-222-R5-J1-PDC cell line growth inhibition [POLQ];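 further: spheroids exposed to compounds for one week before readout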;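 on viability, T/C: percent of DMSO vehicle wells luminescence so 100% = untreated viability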
- condition: second compound 0.316 µM; first compound 3.16 µM; stronger effect = lower value
recorded endpoint: viability, T/C (%)

molecule	target	quantitative result
COc1cc(C2c3cc4c(cc3C(OC3OC5COC(C)OC5C(O)C3O)C3COC(=O)C23)OCO4)cc(OC)c1O (stereo not given) + COC1C(OC(N)=O)C(O)C(Oc2ccc3c(O)c(NC(=O)c4ccc(O)c(CC=C(C)C)c4)c(=O)oc3c2C)OC1(C)C	422866-222-R5-J1-PDC complex spheroid viability	35.7
O=c1[nH]cc(F)c(=O)[nH]1 + Nc1ccc(C#CCN(C(=O)Cc2ncc(C(F)(F)F)cc2C(F)(F)F)c2ccc(F)cc2)nn1	422866-222-R5-J1-PDC complex spheroid viability	75.9
CNCc1ccc(-c2[nH]c3cc(F)cc4c3c2CCNC4=O)cc1 + Nc1ccc(C#CCN(C(=O)Cc2ncc(C(F)(F)F)cc2C(F)(F)F)c2ccc(F)cc2)nn1	422866-222-R5-J1-PDC complex spheroid viability	72.1
C#Cc1c(F)ccc2cc(O)cc(-c3ncc4c(N5CC6CCC(C5)N6)nc(OCC56CCCN5CC(F)C6)nc4c3F)c12 (stereo not given) + Cc1cccc(N(C)C(=O)C2C(O)CCN2c2nc(C)cc(C(F)(F)F)c2C#N)c1	422866-222-R5-J1-PDC complex spheroid viability	29.3
O=C(c1cc(Cc2n[nH]c(=O)c3ccccc23)ccc1F)N1CCN(C(=O)C2CC2)CC1 + Cc1cccc(N(C)C(=O)C2C(O)CCN2c2nc(C)cc(C(F)(F)F)c2C#N)c1	422866-222-R5-J1-PDC complex spheroid viability	97.5

---

- System: 422866-222-R5-J1-PDC complex spheroid viability
- test protocol: Anticancer human tumor 422866-222-R5-J1-PDC cell line growth inhibition [POLQ];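 further: spheroids exposed to compounds for one week before readout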;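 on viability, T/C: percent of DMSO vehicle wells luminescence so 100% = untreated viability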
- condition: second compound 0.0316 µM; first compound 1 µM; stronger effect = lower value

compound	viability, T/C, %
CCc1c2c(nc3ccc(O)cc13)-c1cc3c(c(=O)n1C2)COC(=O)[C@]3(O)CC + Cc1cccc(N(C)C(=O)C2C(O)CCN2c2nc(C)cc(C(F)(F)F)c2C#N)c1	21.4
C=CC(=O)N1CCN(c2nc(=O)n(-c3c(C)ccnc3C(C)C)c3nc(-c4c(O)cccc4F)c(F)cc23)C(C)C1 (stereo unspecified) + Nc1ccc(C#CCN(C(=O)Cc2ncc(C(F)(F)F)cc2C(F)(F)F)c2ccc(F)cc2)nn1	28.5
CC1COCCN1c1cc(-c2ccnn2C)c2ccnc(-c3ccn[nH]3)c2n1 (stereo unspecified) + Nc1ccc(C#CCN(C(=O)Cc2ncc(C(F)(F)F)cc2C(F)(F)F)c2ccc(F)cc2)nn1	31.4
O=C(c1cc(Cc2n[nH]c(=O)c3ccccc23)ccc1F)N1CCN(C(=O)C2CC2)CC1 + Cc1cccc(N(C)C(=O)C2C(O)CCN2c2nc(C)cc(C(F)(F)F)c2C#N)c1	92.9
COc1cccc2c1C(=O)c1c(O)c3c(c(O)c1C2=O)CC(O)(C(=O)CO)CC3OC1CC(N)C(O)C(C)O1 (stereo unspecified) + COC1C(OC(N)=O)C(O)C(Oc2ccc3c(O)c(NC(=O)c4ccc(O)c(CC=C(C)C)c4)c(=O)oc3c2C)OC1(C)C	29.7
Nc1ccn(C2OC(CO)C(O)C2(F)F)c(=O)n1 (stereo unspecified) + Cc1cccc(N(C)C(=O)C2C(O)CCN2c2nc(C)cc(C(F)(F)F)c2C#N)c1	36.1
CCCS(=O)(=O)Nc1ccc(F)c(C(=O)c2c[nH]c3ncc(-c4ccc(Cl)cc4)cc23)c1F + COC1C(OC(N)=O)C(O)C(Oc2ccc3c(O)c(NC(=O)c4ccc(O)c(CC=C(C)C)c4)c(=O)oc3c2C)OC1(C)C	162
CC1COCCN1c1cc(C2(O)CC3CCC(C2)O3)c2cnn(-c3ccn[nH]3)c2n1 (stereo unspecified) + Cc1cccc(N(C)C(=O)C2C(O)CCN2c2nc(C)cc(C(F)(F)F)c2C#N)c1	85.3
O=c1[nH]cc(F)c(=O)[nH]1 + COC1C(OC(N)=O)C(O)C(Oc2ccc3c(O)c(NC(=O)c4ccc(O)c(CC=C(C)C)c4)c(=O)oc3c2C)OC1(C)C	98.9
COc1cc2cc(C(=O)CCC(=O)O)sc2cc1OC + Cc1cccc(N(C)C(=O)C2C(O)CCN2c2nc(C)cc(C(F)(F)F)c2C#N)c1	90.5
C#Cc1c(F)ccc2cc(O)cc(-c3ncc4c(N5CC6CCC(C5)N6)nc(OCC56CCCN5CC(F)C6)nc4c3F)c12 (stereo unspecified) + Nc1ccc(C#CCN(C(=O)Cc2ncc(C(F)(F)F)cc2C(F)(F)F)c2ccc(F)cc2)nn1	48.7
